test system: MvaT; assay: PBM 8-mer E-score (mean of HK and ME arrays) (E-score (dimensionless, -0.5 to 0.5)); higher = stronger relative binding preference
Whole data set: some 33,000 sequences, median “E-score (dimensionless, -0.5 to 0.5)” near -0.058, cut for the highest 2% near 0.35. For the sample, the highest values were picked, then their nearest neighbours and some sequences at random.
PBM 8-mer E-score of 0.2 or higher: Criterion met. Under 0.2: Criterion not met.

polymerSequence	qualitativeLabel
TGAAATAA	Criterion met
AGAAATAC	Criterion not met
AAATTAGG	Criterion not met
GGAAATAA	Criterion met
AGTAGGAT	Criterion not met
CAATAATA	Criterion met
CGAAATAA	Criterion met
AGAAATAA	Criterion met

Kindly consider the entry below.
Q. Threshold query (PBM 8-mer E-score >= 0.2) on ACGCGTCG
A. Criterion not met
